# IC50 per record follows
Target or system: human complement factor D (Homo sapiens)
Construct: purchased R&D Systems 1824-SE
Procedure text: In vitro enzyme inhibition (Z-Lys-SBzl/DTNB absorbance assay)
Format: biochemical
Measurement context: Complement Factor D (R&D Systems), substrate Z-Lys-SBzl, A405 nm; read-out: CFD IC50
Method: The ability of the compounds disclosed herein to inhibit human complement factor D inhibitory activity was quantified according to the 12-step protocol provided below. • 1. Prepare assay buffer: 50 mM Tris/HCl, pH 7.5, 1 M NaCl. • 2. […] For kinetic reading: Immediately start measuring absorbance (A405 nm) continuously and record data every 30sec for 60 min. • 12. Data analysis • Inhibition activity of compound was evaluated by IC50. […]

Known IC50 results, listed for orientation:
Find the measured IC50: item NC(=O)c1nn(CC(=O)N2[C@H](C(=O)Nc3cccc(Cl)n3)C[C@@H]3CCC[C@@H]32)c2cc(F)ccc12 [Example 172, 2,2,2-trifluoroacetate] , target or system human complement factor D (Homo sapiens).
100 to 1000 nM

Notebook entry, human complement factor D (Homo sapiens) assay: IC50 of Cc1cccc(NC(=O)[C@@H]2[C@H]3CC[C@H](C3)N2C(=O)Cn2nc(C(N)=O)c3ccncc32)n1 [Example 7] = ?
1000 to 10000 nM

---
Fill in the recorded IC50 for this molecule, with human complement factor D (Homo sapiens) as test system: CCOC(=O)[C@@H]1C[C@@H](C(=O)NCc2cccc(Cl)c2F)N1C(=O)Cn1nc(C(N)=O)c2ccccc21 (relative stereo) [Example 194]
100 to 1000 nM

Request: IC50, test system human complement factor D (Homo sapiens), entry NC(=O)c1nn(CC(=O)N2[C@@H]3CC[C@@H](C3)[C@H]2C(=O)NC(CO)c2cccc(Cl)c2F)c2ccccc12 (stereo partly drawn) [Example 138]
1000 to 10000 nM

Field: IC50 (human complement factor D (Homo sapiens)). Entry: NC(=O)c1nn(CC(=O)N2[C@@H]3CC[C@@H](C3)[C@H]2C(=O)Nc2cccc(-c3ccccc3Cl)n2)c2ccccc12 [Example 44]
100 to 1000 nM

Form field - read-out: IC50; system: human complement factor D (Homo sapiens); submitted item: NC(=O)c1nn(CC(=O)N2[C@H](C(=O)Nc3cccc(Cl)n3)C[C@@H]3CCC[C@@H]32)c2ccc(F)cc12 [Example 169]
100 to 1000 nM

----------
Target or system: human complement factor D (Homo sapiens, UniProt P00746)
Construct: purchased R&D Systems 1824-SE
Sequence (P00746 26-253): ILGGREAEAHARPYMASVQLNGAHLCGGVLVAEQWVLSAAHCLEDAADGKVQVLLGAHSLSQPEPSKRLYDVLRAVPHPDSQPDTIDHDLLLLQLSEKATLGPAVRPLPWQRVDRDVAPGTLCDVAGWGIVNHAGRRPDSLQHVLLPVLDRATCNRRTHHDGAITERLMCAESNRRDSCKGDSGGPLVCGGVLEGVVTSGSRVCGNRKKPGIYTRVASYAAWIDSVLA
Procedure text: In vitro enzyme inhibition (Z-Lys-SBzl/DTNB absorbance assay)
Type: biochemical
Measurement context: Complement Factor D (R&D Systems), substrate Z-Lys-SBzl, A405 nm; read-out: CFD IC50
# IC50 annotations

State the recorded IC50 for this entry: COC(=O)CC(NC(=O)[C@@H]1[C@H]2CC[C@H](C2)N1C(=O)Cn1nc(C(N)=O)c2ccccc21)c1cccc(Cl)c1F (stereo partly drawn)
1 to 10 µM

// lookup IC50 for NC(=O)c1nn(CC(=O)N2[C@@H]3CC[C@@H](C3)[C@H]2C(=O)NCc2cccc(Cl)c2F)c2ccc(CC(=O)O)cc12
1 to 10 µM

With those in mind, consider the next compound.
# query: IC50 of entry NC(=O)c1nn(CC(=O)N2CCCCC[C@H]2C(=O)Nc2cccc(Cl)c2F)c2ccccc12
1 to 10 µM

----------
Target or system: human complement factor D (Homo sapiens, UniProt P00746)
Construct: purchased R&D Systems 1824-SE
Procedure text: In vitro enzyme inhibition (Z-Lys-SBzl/DTNB absorbance assay)
Type: biochemical
Measurement context: Complement Factor D (R&D Systems), substrate Z-Lys-SBzl, A405 nm; read-out: CFD IC50
Readout name: IC50

Solved entries:
# IC50 lookup, item NC(=O)c1nc(CC(=O)N2CC[C@H]2C(=O)NCc2cccc(Cl)c2F)n2ccccc12
100 to 1000 nM

Looking for the measured IC50 of CN1CCN(C(=O)Cn2nc(C(N)=O)c3ccccc32)[C@H](C(=O)Nc2cccc(Cl)n2)C1 , can you help?
1000 to 10000 nM

What measured IC50 goes with COc1ccc(Cl)nc1NC(=O)[C@@H]1[C@H]2CC[C@H](C2)N1C(=O)Cn1nc(C(N)=O)c2ccccc21 ?
< 100 nM

What value of measured IC50 is listed for CC(=O)c1nn(CC(=O)N2[C@@H]3CC[C@@H](C3)[C@H]2C(=O)Nc2cccc(Cl)n2)c2cnccc12 ?
100 to 1000 nM

Name the recorded IC50 for COC(=O)Cc1ccc2c(c1)c(C(N)=O)nn2CC(=O)N1[C@@H]2CC[C@@H](C2)[C@H]1C(=O)NCc1cccc(Cl)c1F .
100 to 1000 nM

Quick one: IC50 of NC(=O)c1nn(CC(=O)N2CCNCCC2C(=O)NCc2cccc(Cl)c2F)c2ccccc12 (centres unmarked) [Example 35, 2,2,2-trifluoroacetate] ?
1000 to 10000 nM

***
Param item = NCCC(NC(=O)[C@@H]1[C@H]2CC[C@H](C2)N1C(=O)Cn1nc(C(N)=O)c2ccccc21)c1cccc(Cl)c1F (some centres unmarked) ; retrieve measured IC50.
1000 to 10000 nM

For the compound COc1ccc2c(c1)c(C(N)=O)nn2CC(=O)N1[C@@H]2CC[C@@H](C2)[C@H]1C(=O)Nc1cccc(Cl)n1 , what IC50 is on record?
1000 to 10000 nM

----------
Target or system: human complement factor D (Homo sapiens)
Construct: purchased R&D Systems 1824-SE
Procedure text: In vitro enzyme inhibition (Z-Lys-SBzl/DTNB absorbance assay)
Type: biochemical
Measurement context: Complement Factor D (R&D Systems), substrate Z-Lys-SBzl, A405 nm; read-out: CFD IC50
pIC50: −log10 of the molar value.
# maps each entry to its pIC50

Request: pIC50, test system human complement factor D (Homo sapiens), entry COC(=O)c1ccc(Cl)c(F)c1CNC(=O)[C@@H]1[C@H]2CC[C@H](C2)N1C(=O)Cn1nc(C(N)=O)c2ccccc21
5.00 to 6.00

Provide value of pIC50 for this record tested with human complement factor D (Homo sapiens): Cc1cc(Cl)nc(NC(=O)[C@@H]2[C@H]3CC[C@H](C3)N2C(=O)Cn2nc(C(N)=O)c3ccccc32)c1
6.00 to 7.00

human complement factor D (Homo sapiens) / pIC50 / CNC(=O)c1nn(CC(=O)N2[C@@H]3CC[C@@H](C3)[C@H]2C(=O)Nc2cccc(Cl)n2)c2ccccc12 : value?
5.00 to 6.00

Lab request: please report pIC50 under test system human complement factor D (Homo sapiens) for CC(O)c1nn(CC(=O)N2[C@@H]3CC[C@@H](C3)[C@H]2C(=O)Nc2cccc(Cl)n2)c2ccccc12 (stereo partly shown)
< 5.00

Quick check: pIC50 on human complement factor D (Homo sapiens), item NC(=O)c1nn(CC(=O)N2[C@H](C(=O)Nc3ccnc(Cl)c3)C[C@@H]3CCC[C@@H]32)c2ccccc12 ?
< 5.00

Lab note: need pIC50 with human complement factor D (Homo sapiens) for entry NC(=O)c1nn(CC(=O)N2C3CCC(C3)[C@H]2C(=O)Nc2cccc(Cl)n2)c2ccccc12 (stereo partly shown) , please look it up.
> 7.00

Item: NC(=O)c1nn(CC(=O)N2[C@@H]3CC[C@@H](C3)[C@H]2C(=O)Nc2cccc(Cl)n2)c2ccccc12 Test system: human complement factor D (Homo sapiens) Read-out: pIC50 Value: ?
> 7.00

----------
Target or system: human complement factor D (Homo sapiens)
Construct: purchased R&D Systems 1824-SE
Procedure text: In vitro enzyme inhibition (Z-Lys-SBzl/DTNB absorbance assay)
Assay type: biochemical
Measurement context: Complement Factor D (R&D Systems), substrate Z-Lys-SBzl, A405 nm; read-out: CFD IC50
Recorded IC50 values for a group of molecules are listed next.

Suppose we examine the molecule NC(=O)n1cc(CC(=O)N2CC[C@H]2C(=O)NCc2cccc(Cl)c2F)c2ccccc21 ; what IC50 value has been reported?
100 to 1000 nM

Which IC50 value is on record for NC(=O)c1nn(CC(=O)N2[C@@H]3CC[C@@H](C3)[C@H]2C(=O)NCc2ccc(F)c(Cl)c2)c2ccccc12 [Example 63, 2,2,2-trifluoroacetate] ?
1000 to 10000 nM

Request the reported IC50 associated with NC(=O)c1nn(CC(=O)N2[C@@H]3CC[C@@H](C3)[C@H]2C(=O)NCc2cccc(Cl)c2F)c2cc(CCO)ccc12
1000 to 10000 nM

State the recorded IC50 for this entry: COc1ccc2c(c1)c(C(N)=O)nn2CC(=O)N1[C@H](C(=O)Nc2cccc(Cl)n2)C[C@@H]2CCC[C@@H]21
100 to 1000 nM

Which IC50 reading was recorded for the molecule NC(=O)c1nn(CC(=O)N2[C@H](C(=O)Nc3cccc(Cl)n3)C[C@@H]3CCC[C@@H]32)c2ccc(C3CC3)cc12 ?
100 to 1000 nM

Can you look up the measured IC50 of COc1ccc2c(c1)c(C(C)=O)nn2CC(=O)N1[C@@H]2CC[C@@H](C2)[C@H]1C(=O)Nc1cccc(Cl)n1 for me?
100 to 1000 nM

What does the record list as IC50 for NC(=O)c1nn(CC(=O)N2CC3CC2(C(=O)Nc2cccc(Cl)c2F)C3)c2ccccc12 ?
> 10000 nM

Please give the measured IC50 for this molecule: NC(=O)c1nn(CC(=O)N2[C@H](C(=O)Nc3cccc(Cl)n3)C[C@@H]3CCC[C@@H]32)c2ccccc12
100 to 1000 nM

Others:
// lookup IC50 for CC(=O)c1nn(CC(=O)N2[C@H](C(=O)Nc3cccc(Cl)n3)C[C@@H]3CCC[C@@H]32)c2ccccc12
100 to 1000 nM

The reported numbers originate from patent US20190127366A1.
